Target: DOR (Homo sapiens, UniProt P41143)
Construct: membrane homogenate
Sequence (P41143 whole entry): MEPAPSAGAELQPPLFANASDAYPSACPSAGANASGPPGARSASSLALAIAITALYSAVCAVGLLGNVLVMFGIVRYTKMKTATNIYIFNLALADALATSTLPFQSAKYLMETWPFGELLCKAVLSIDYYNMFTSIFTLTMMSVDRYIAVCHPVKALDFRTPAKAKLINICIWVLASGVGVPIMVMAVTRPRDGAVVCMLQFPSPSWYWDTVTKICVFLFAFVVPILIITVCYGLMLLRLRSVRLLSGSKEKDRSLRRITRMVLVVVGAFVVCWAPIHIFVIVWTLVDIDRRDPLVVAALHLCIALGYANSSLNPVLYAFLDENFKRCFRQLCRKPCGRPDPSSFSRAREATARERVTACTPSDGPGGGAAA
Assay: [35S]-GTPγS functional assay, DOR
Settings: hDOR-CHO membranes
Labelling field: enter 1 (yes) if recorded EC50 is less than 100 nM. Enter 0 (no) if it equals or exceeds that cut-off.

COMPOUND: CN(C(=O)CCc1ccoc1)[C@H]1CC[C@@]2(O)[C@H]3Cc4cccc5c4[C@@]2(CCN3CC2CC2)[C@H]1O5
SYSTEM UNDER TEST: DOR (Homo sapiens, UniProt P41143)
LABEL: 0 (no)
//
COMPOUND: O=C(CCc1ccco1)N[C@H]1CC[C@@]2(O)[C@H]3Cc4cccc5c4[C@@]2(CCN3CC2CC2)[C@H]1O5
SYSTEM UNDER TEST: DOR (Homo sapiens, UniProt P41143)
LABEL: 0 (no)
//
COMPOUND: CN(C(=O)/C=C/c1ccco1)[C@H]1CC[C@@]2(O)[C@H]3Cc4ccc(O)c5c4[C@@]2(CCN3CC2CC2)[C@H]1O5.Cl
SYSTEM UNDER TEST: DOR (Homo sapiens, UniProt P41143)
LABEL: 1 (yes)
//
COMPOUND: CN(C(=O)CCc1ccco1)[C@H]1CC[C@@]2(O)[C@H]3Cc4cccc5c4[C@@]2(CCN3CC2CC2)[C@H]1O5
SYSTEM UNDER TEST: DOR (Homo sapiens, UniProt P41143)
LABEL: 0 (no)
//
COMPOUND: O=C(CCc1ccco1)N[C@@H]1CC[C@@]2(O)[C@H]3Cc4cccc5c4[C@@]2(CCN3CC2CC2)[C@H]1O5
SYSTEM UNDER TEST: DOR (Homo sapiens, UniProt P41143)
LABEL: 0 (no)
//
COMPOUND: CN(C(=O)/C=C/c1ccco1)[C@@H]1CC[C@@]2(O)[C@H]3Cc4ccc(O)c5c4[C@@]2(CCN3CC2CC2)[C@H]1O5.Cl
SYSTEM UNDER TEST: DOR (Homo sapiens, UniProt P41143)
LABEL: 1 (yes)

====

Molecular target: DOR (Homo sapiens, UniProt P41143)
Construct: expressed in transfected cells; membrane homogenate
Assay: Competitive radioligand binding assay, DOR
Details: [3H]diprenorphine, hDOR-CHO membranes; read-out: radioligand binding affinity (Ki, nM) DOR

COMPOUND: Cl.O=C(CCc1ccco1)N[C@@H]1CC[C@@]2(O)[C@H]3Cc4ccc(O)c5c4[C@@]2(CCN3CC2CC2)[C@H]1O5
Ki / nM: 33

====

Test system: male Swiss Webster mice
Experiment: Warm-water tail immersion assay, agonism (single dose screen and potency)
Assay type: in vivo, mouse
Conditions: Mus musculus, sc, read-out: potency ED50 [95% CI] mg/kg; s.c., 20 min prior to tail withdrawal latency measurement, male Swiss Webster mice
ENDPOINT NAME: log10 ED50 (log10 of the value in mg/kg)

COMPOUND: O=C(/C=C/c1ccco1)N[C@H]1CC[C@@]2(O)[C@H]3Cc4ccc(O)c5c4[C@@]2(CCN3CC2CC2)[C@H]1O5
EXPERIMENTAL RESULT: 0.61
//
COMPOUND: CN(C(=O)CCc1ccoc1)[C@H]1CC[C@@]2(O)[C@H]3Cc4cccc5c4[C@@]2(CCN3CC2CC2)[C@H]1O5
EXPERIMENTAL RESULT: -0.26
//
COMPOUND: CN(C(=O)/C=C/c1ccco1)[C@H]1CC[C@@]2(O)[C@H]3Cc4cccc5c4[C@@]2(CCN3CC2CC2)[C@H]1O5
EXPERIMENTAL RESULT: 0.89
//
COMPOUND: CN(C(=O)CCc1ccco1)[C@@H]1CC[C@@]2(O)[C@H]3Cc4ccc(O)c5c4[C@@]2(CCN3CC2CC2)[C@H]1O5
EXPERIMENTAL RESULT: -0.60
//
COMPOUND: O=C(/C=C/c1ccco1)N[C@@H]1CC[C@@]2(O)[C@H]3Cc4ccc(O)c5c4[C@@]2(CCN3CC2CC2)[C@H]1O5
EXPERIMENTAL RESULT: 0.52
//
COMPOUND: CN(C(=O)/C=C/c1ccco1)[C@@H]1CC[C@@]2(O)[C@H]3Cc4ccc(O)c5c4[C@@]2(CCN3CC2CC2)[C@H]1O5.Cl
EXPERIMENTAL RESULT: -2.00
